These measurements were taken from paper PMC314469.

- System: Myo5 SH3 domain
- Protocol: SPOT analysis of cellulose-bound peptides (WISE), Myo5 SH3 domain (Dataset S4)
- Assay type: binding, Saccharomyces cerevisiae
- Details: SPOT analysis of membrane-bound peptides, Myo5 SH3 domain; normalized value (see methods)
Please note: The normalized value in BLU units exactly at 200 BLU is False. Only values below 200 BLU get True.

Residue String	Category
PTVQKFSPHPPTTL	False
AKLRKFHPPEPYKG	True
KVIRKGSPKSPAMV	False
KSIPRTKPNVPPLQ	False
AALVKFVPSKPMCV	False
RTFFKLPPNLPEAE	False
EKELKEGPSSPASI	False
GFLSKKVPNTPVVV	True

Query: Determine if "RLVSKYRPNCPIIL" shows The normalized value in BLU units strictly lower than 200 BLU.
Reply: False

Query: Determine if "TPQSRFPPYSPLLP" shows The normalized value in BLU units strictly lower than 200 BLU.
Reply: False
